Where do these numbers come from? They come from ChEMBL document CHEMBL4414593.

System: KB
experimental-details: Antiproliferative activity against human KB cells assessed as reduction in cell viability after 72 hrs by SRB assay
Assay type: functional, cell-based
readout-kind: IC50 (µM)

C=C(C)C(O)Cc1c(O)c(C(C)=O)c(O)c(C(CC(C)C)c2c(O)c(CC=C(C)C)c(OC)c(C(C)=O)c2O)c1O (racemic) [ACROVESTENOL]	6

(a) CC(=O)O[C@H]1C(=O)[C@@]2(C)[C@H]([C@H](OC(=O)c3ccccc3)[C@]3(O)C[C@H](OC(=O)[C@H](O)[C@@H](NC(=O)c4ccccc4)c4ccccc4)C(C)=C1C3(C)C)[C@]1(OC(C)=O)CO[C@@H]1C[C@@H]2O [PACLITAXEL]
(b) COc1c(CC=C(C)C)c(O)c(C(CC(C)C)c2c(O)c(CC=C(C)C)c(OC)c(C(C)=O)c2O)c(O)c1C(C)=O
Lower value for measured IC50? Options: a , b Selection: enter the item's label.
a

* * *

System: KB
experimental-details: Antiproliferative activity against human KB cells assessed as reduction in cell viability after 72 hrs by SRB assay
Format: functional, cell-based
pIC50: −log10 of the molar value.
readout-kind: pIC50

COc1c(CC=C(C)C)c(O)c(Cc2c(O)cc(O)c(C(C)=O)c2O)c(O)c1C(C)=O	5.28
COc1c(CC=C(C)C)c(O)c(C(CC(C)C)c2c(O)cc(O)c(C(C)=O)c2O)c(O)c1C(C)=O (stereo unspecified)	5.28
COc1c(CC=C(C)C)c(O)c(C(CC(C)C)c2c(O)c3c(c(C(C)=O)c2O)OC(C)(C)C=C3)c(O)c1C(C)=O (racemic)	5.31
COc1c(CC=C(C)C)c(O)c(Cc2c(O)c(CC=C(C)C)c(OC)c(C(C)=O)c2O)c(O)c1C(C)=O	5.26
COc1c(CC=C(C)C)c(O)c(C(CC(C)C)c2c(O)c(CC=C(C)C)c(O)c(C(C)=O)c2O)c(O)c1C(C)=O (racemic)	5.31

* * *

Reported IC50 values for a set of molecules
System: KB
experimental-details: Antiproliferative activity against human KB cells assessed as reduction in cell viability after 72 hrs by SRB assay
Type: functional, cell-based

Some solved cases for reference:
COc1c(CC=C(C)C)c(O)c(C(CC(C)C)c2c(O)c(C=O)c(O)c(C(C)=O)c2O)c(O)c1C(C)=O (racemic)	> 10 µM
COc1c(CC=C(C)C)c(O)c(C(CC(C)C)c2c(O)c3c(c(C(C)=O)c2O)OC(C(C)(C)O)C3)c(O)c1C(C)=O (racemic)	> 10 µM

Would you kindly look at the next entry?
What measured IC50 is associated with COc1c(CC=C(C)C)c(O)c(C(CC(C)C)c2c(O)c3c(c(C(C)=O)c2O)OC(C)(C)C(O)C3)c(O)c1C(C)=O (racemic) on KB?
> 10 µM
